Test system: OVCAR-5
METHOD: NCI tumour cell line growth inhibition, 48 h
Activity calls are given as the source filed them. Rule as the data show it: active = GI50 up to about 1.1 µM and inactive = higher.
READOUT_NAME: GI50

Entry `N#CCCN(CCC#N)c1ccc(/C=C2\N=C(c3ccccc3)N(c3ccccn3)C2=O)cc1` needs its GI50 filled in; supply it.
> 100 µM (inactive)

***
Return value of GI50 for input `NS(=O)(=O)c1ccc(NC(=S)N/C=C2\C(=O)Nc3ccccc3C2=O)cc1` , no commentary.
> 100 µM (inactive)

Name the recorded GI50 of the compound listed here: `Nc1nccc(NCC2(CO)CCC2)n1`
> 100 µM (inactive)

Answer with the recorded GI50 for the compound listed here: `CN(C)CCCNc1ccc2ncn3c4ccccc4c(=O)c1c23`
10.7 µM (inactive)

For the compound `COc1cc(-c2c[nH]c3ccccc23)nc(-c2c[nH]c3ccccc23)n1` , give its reported GI50.
8.13 µM (inactive)

Kindly indicate its recorded GI50. Item: Cc1ccc(C2=Nc3ccccc3SC(c3cccc([N+](=O)[O-])c3)C2)cc1 (stereo not given)
> 100 µM (inactive)

Please give measured GI50 of the following entry: `Cc1ccc(/N=N/c2c(-c3ccccc3)nn(C(=O)CC(=O)Nc3ccc(Cl)cc3)c2-c2ccccc2)cc1`
48.6 µM (inactive)

Look up GI50 of `CCSc1nc(N2CCOCC2)c2cn[nH]c2n1` and report it.
77.4 µM (inactive)

Could you please provide reported GI50 for `CN(C)CCNC(=O)c1cccc(NC(=O)c2ccccc2)c1[N+](=O)[O-]` ? Thanks!
> 100 µM (inactive)

Input `O=C1c2ccccc2C(=O)C1(Cl)C1(S(=O)(=O)O)c2ccccc2-c2ccccc21` , output reported GI50.
> 100 µM (inactive)

----------
Tested on: MDA-MB-231
METHOD: NCI tumour cell line growth inhibition, 48 h
Active and inactive are the calls of the source. Cut-off read from the data, not from the text of the source: active = GI50 up to about 1.1 µM and inactive = higher.
Result category, one only: true for active, false for inactive

A selection of reference data follows.
Call for entry `CCOC(=O)/C=C/[C@H](O[Si](CC)(CC)CC)C(C)(C)C` :
false

Which outcome did this test record for the compound `Nc1nc(Cl)cc(Nc2ccc3c(c2)CCC3)n1` ?
false

Per the assay record, what outcome was assigned to CCNc1nc2c(ncn2C2CC(O)C(COP(=O)(O)O)O2)c(=O)[nH]1 (stereo not drawn) ?
false

Tell me the assay call for COC(=O)c1c2c(cc3c1CC1(Cc4cc5c(cc4C1=O)CCC5)C3)CCC2 (stereo not drawn) please.
false

Please state the recorded outcome for this compound: `Oc1[nH]c(Nc2ccc(Cl)c(C(F)(F)F)c2)nc2ncnc1-2`
false

Could you check what this test reported for C[C@]12CCC3c4ccc(O)cc4CC[C@H]3C1CC(=O)N(N)C2=O (stereo partly drawn) ?
false

Pending compound:
Just curious, what result did `CN(C)CCNC(=O)c1cccc(NC(=O)c2ccccc2)c1[N+](=O)[O-]` get here?
false

----------
Test system: A549
METHOD: NCI tumour cell line growth inhibition, 48 h
Calls of active or inactive are those of the source. No stated cut-off is given here; in the data, active = GI50 up to about 1.1 µM and inactive = higher.
READOUT_NAME: GI50

Param request: GI50 | system A549 | item `C1=CN2C[n+]3cccc(OCc4ccccc4)c3N=C2C(OCc2ccccc2)=C1`
19.5 µM (inactive)

State measured GI50 of the compound COc1ccc(NC(=O)CC2SC(Nc3ccc(Cl)cc3C)=NC2=O)c([N+](=O)[O-])c1 (stereo not given) with A549.
> 100 µM (inactive)

State, for A549, measured GI50 of the compound listed here: CC(=O)C(CN(C)Cc1ccccc1)C(c1ccccc1)c1c(O)c2ccccc2oc1=O (stereo not given)
> 100 µM (inactive)

***
Provide A549 GI50 reading for `C/C(=N\N=C(\N)SB(F)F)c1ccc2ccccc2c1` .
> 100 µM (inactive)

Fill in: GI50 on A549, entry `CC[C@H](CC[C@@H](C)[C@H]1CC[C@H]2[C@@H]3CC=C4C[C@@H](O)CC[C@]4(C)[C@H]3CC[C@]12C)C(C)C`
> 100 µM (inactive)

Report value only: GI50, A549, C[C@@](O)(/C=C/[C@H]1CC=CC(=O)O1)[C@@H](C[C@@H](O)\C=C/C=C\C=C\CO)OP(=O)(O)O [FOSTRIECIN SODIUM]
9.66 µM (inactive)

Report its GI50 with A549 as the test system: `C=C(C)CNC(=S)N(N)c1ccc(OC)cc1`
> 100 µM (inactive)
